Tested on: SR leukemia
Experiment: NCI-60 one-dose screen, 48 h (100 = growth as untreated, 0 = no growth, -100 = all killed)
Conditions: 10 µM unless noted
This is part of a sample that, as a whole, favours compounds with a hit. Of some 83,000 tested, about 20% had one in any assay.
MEASURED PROPERTY: growth (%)
Field format: number, assumed %, no unit text.

The examples below pair each entry with its known result.
Cc1cccc(C)c1N=c1oc2ccc(Cl)cc2nc1-c1ccccc1O | 51.9
N#CC1=C(/N=C/c2ccccc2)Oc2c(ccc3ccccc23)C1c1ccc([N+](=O)[O-])cc1 (stereo not given) | 81
O=C1Nc2cc(-c3ccc(NC(=O)c4ccccc4)cc3)ccc2/C1=C/c1ccc[nH]1 | 29.7
N#C/C(=C\c1c(-c2ccccc2)[nH]c2ccccc12)C(=O)c1ccc(Cl)cc1 | 48.6
O=C(c1ccccc1)N1N=C(c2ccc(-n3ccc(C(F)(F)F)n3)c(F)c2)CC1c1ccc[nH]1 (stereo not given) | 104
N#C/C(=C\c1ccccn1)c1nc2cc(Cl)ccc2s1 | 40.3
CN(C)CC(O)c1ccc(/C=C/c2ccc(Cl)cc2)cc1 (stereo not given) | -38.8
COc1ccc2c(c1)oc1c(C)c3c(c(C)c12)C(=O)N(CCN1CCOCC1)C3=O | 85.8

For this molecule ( Nc1ccccc1NC(=O)c1ccc(-n2nc(-c3ccccc3)c3ccccc32)cc1 ), measured growth is 48.6

# molecule CCCNC(=O)Oc1ccc(/C(=C(\C)c2ccccc2)c2ccc(OCCCN(C)C)cc2)cc1 ; its growth = 4.87
